# test-name: NCI Yeast Anticancer Drug Screen. Data for the rad50 strain (AID 155)
# cond: S. cerevisiae rad50 strain growth inhibition; at 50.0 µM
The panel holds about 79,000 compounds, 15% with a hit somewhere; the sample as a whole holds those more often. Active and inactive are the calls of the source. Cut-off read from the data, not from the text of the source: active = growth inhibition above about 70%; inactive = the rest.
Write down one outcome, taken from active, inactive

>  <compound>
CC(C)CCN1CCC2(CCCCC2)CC1

>  <cat>
inactive

$$$$
>  <compound>
O=C1C(Br)=C(Br)C(=O)c2ccccc21

>  <cat>
active

$$$$
>  <compound>
CC(C)(C)c1cc(C(c2cc3c(cc2O)OCO3)N2CCOCC2)cc(C(C)(C)C)c1O (stereo unspecified)

>  <cat>
inactive

$$$$
>  <compound>
CCOc1ccc(C=Nc2ccc(/C=C(\C)C(=O)OCCC(C)C)cc2)cc1

>  <cat>
active

$$$$
>  <compound>
CN(C)NC(=S)C(F)(F)F

>  <cat>
active

$$$$

Continue with the next compound.
Q) Test call, this compound: Cc1ccc[n+](CC(=O)C2CCC3C4CC=C5CC(O)CCC5(C)C4CCC23C)c1 (stereo unspecified)
A) active

Reference for the values: PubChem BioAssay (NCI)
